Target: T1, human GITR (amino acids M1-V241, NCBI Accession #NP_004186.1) expressed on cells (human, UniProt Q9Y5U5 26-241)
T1 sequence: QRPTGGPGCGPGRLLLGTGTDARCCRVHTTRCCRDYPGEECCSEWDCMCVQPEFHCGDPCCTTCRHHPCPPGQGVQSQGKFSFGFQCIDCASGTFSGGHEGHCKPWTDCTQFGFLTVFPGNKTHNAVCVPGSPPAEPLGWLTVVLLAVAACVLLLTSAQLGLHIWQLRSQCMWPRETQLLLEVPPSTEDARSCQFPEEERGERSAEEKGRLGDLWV
Assay: cell-based or functional assay
Measurement Name: % Blocking, NF-kB-Luc, non-anchored (%)

Binder | Result
H4H14516P (antibody, human IgG4, V domains shown, human IgG4 (H4H)) VH: EVQLVESGGGLVQPGGSLRLSCAASGFTFSNYEMYWVRQAPGKGLEWVSYISSSGTTIYYADSVKGRFSVSRENARSSLYLQMNSLRVEDSAVYFCAKYNWNSFYGLDVWGQGTTVTVSS VL: AIQMTQSPSSLSASVGDRVTITCRASQDIRNDLGWYQQKPGKAPKLLISAASSLQGGVPSRFSGSGSGTDFTLTISSLQPADFATYYCLQEYNYALTFGGGTKVEIK | 70
H1H14523P (antibody, human IgG1, V domains shown, human IgG1 (H1H)) VH: QVQLVESGGGVVQPGRSLRLSCEASGFTFSSYGMHWVRQAPGKGLEWVAVIWYSESNKYYTDSMKGRLTISRDNSKNTLYLQMNSLRAEDTAVYYCARGGLLGKYYYYGMDVWGQGTTVTVSS VL: DIQMTQSPSSLSASVGDRVIITCRASQDIRNDLGWYQQKPGKAPKRLIYAASSLQSGVPSRFSGSGSGTEFTLTISSLQPEDFATFYCLQLNSYPYTFGQGTKLEIK | 70
H4H14470P (antibody, human IgG4, V domains shown, human IgG4 (H4H)) VH: QVQLVESGGGVVQPGRSLRLSCAASGFTVRNYGMHWVRQAPGKGLEWVAVIWYDGSNKYYADSVKGRFTISRDNSKNTLFLQMNSLRAEDTAVYYCARGGELVRGDYYYGMDVWGQGTTVTVSS VL: DIQMTQSPSSLSASVGDRVTITCRASQGIRNDLGWYQQKPGKAPKRLIYGASSLQSGVPSRFSGSGSGTEFTLTISSLQPEDFATYYCLQHNSYPYTFGQGTKLEIK | 80
